Origin of measurements: patent US20200131144A1

# Test Target: GST-LXRβ ligand-binding domain (Homo sapiens, UniProt P55055, INS174Q)
# Construct: amino acids 156-461; NP009052
# Sequence (P55055 with tags, fused parts or gaps INS174Q limits assumed): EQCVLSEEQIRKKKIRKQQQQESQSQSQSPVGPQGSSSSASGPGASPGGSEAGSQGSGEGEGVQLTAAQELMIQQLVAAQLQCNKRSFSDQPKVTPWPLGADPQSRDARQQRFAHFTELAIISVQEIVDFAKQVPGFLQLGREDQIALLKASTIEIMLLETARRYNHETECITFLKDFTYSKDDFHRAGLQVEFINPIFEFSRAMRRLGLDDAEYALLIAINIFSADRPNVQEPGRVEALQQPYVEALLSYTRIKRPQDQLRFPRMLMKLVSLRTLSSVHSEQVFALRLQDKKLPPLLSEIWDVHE
# Protocol Description: TR-FRETβ activity assay (NCoA3 coactivator peptide recruitment)
# Measurement Conditions: 1 μM 24(S)-25-epoxycholesterol as prestimulating agonist; inverse agonist unless *
pEC50: −log10 of the molar value.
Kindly supply the reported pEC50 values for the records listed here.

[ask] Name the reported pEC50 value associated with the molecule "Cc1ccc2ccccc2c1CN(Cc1ccc(-c2cccc(S(=O)(=O)CC(=O)O)c2)cc1)Cc1ccc(C(F)(F)F)o1"
[reply] 5.00 to 6.00

[ask] Note, next up: "COCc1c(C)cc(C)c(C(=O)N(Cc2ccc(-c3cccc(C(C)(C)C(=O)O)c3)cc2)Cc2ccc(C(F)(F)F)o2)c1C"
[reply] 6.00 to 7.00

[ask] Likewise for "Cc1ccc2ccccc2c1C(=O)N(Cc1ccc(C(F)(F)F)o1)Cc1ccc(-c2cncc(S(=O)(=O)CC(=O)O)c2)cc1Cl" ?
[reply] 5.00 to 6.00

[ask] What would you report for "Cc1c(C(=O)N(Cc2ccc(-c3cccc(C(C)(C)C(=O)O)c3)cc2)Cc2ccc(C(F)(F)F)o2)c2ccccc2n(C)c1=O" ?
[reply] 6.00 to 7.00

[ask] What about this molecule? Cc1nc2cccnc2c(C(=O)N(Cc2ccc(-c3cccc(C(C)C(=O)O)c3)cc2)Cc2ccc(C(F)(F)F)o2)c1C (stereo not drawn)
[reply] 6.00 to 7.00

[ask] Input "Cc1ccc2ccccc2c1CN(Cc1ccc(-c2cc(F)c(CO)c(S(=O)(=O)CC(=O)O)c2)cc1)Cc1ccc(C(F)(F)F)o1"
[reply] 5.00 to 6.00

[ask] What would you report for Cc1nc2ccccc2c(C(=O)N(Cc2ccc(C(F)(F)F)o2)Cc2ncc(-c3cccc(C(C)C(=O)O)c3)cc2Cl)c1C (stereo not drawn) ?
[reply] 6.00 to 7.00

[ask] Then Cc1ccc2ccccc2c1C(=O)N(Cc1ccc(-c2cccc(C(C)(N)C(=O)O)c2)cc1)Cc1ccc(C(F)(F)F)o1 (stereo not drawn) ?
[reply] 6.00 to 7.00

[ask] Cool, now "Cc1ccc2ccccc2c1C(=O)N(Cc1ccc(-c2cccc(C(C)(C)C(=O)O)c2)cc1)Cc1ccc(C#N)o1"
[reply] > 7.00

[ask] Same read-out for "CC1=C(C(=O)N(Cc2ccc(-c3cccc(C(C)(C)C(=O)O)c3)cc2)Cc2ccc(C(F)(F)F)o2)c2ccccc2CC1" ?
[reply] > 7.00

[ask] What about "CN1CCc2nc3ccccc3c(C(=O)N(Cc3ccc(-c4cccc(C(C)(C)C(=O)O)c4)cc3)Cc3ccc(C(F)(F)F)o3)c2C1" ?
[reply] 6.00 to 7.00

[ask] Next record, please: "CC(C)(C(=O)O)c1cccc(-c2ccc(CN(Cc3ccc(C(F)(F)F)o3)Cc3c(C(F)F)ccc4ccccc34)cc2)c1"
[reply] 6.00 to 7.00

[ask] Entry to check: "COc1c(C)nc2ccccc2c1C(=O)N(Cc1ccc(-c2cccc(C(C)(C)C(=O)O)c2)cc1)Cc1ccc(C(F)(F)F)o1"
[reply] 6.00 to 7.00

[ask] Okay, and "COc1ccc2c(CN(Cc3ccc(-c4cccc(C(C)(C)C(=O)O)c4)cc3)Cc3ccc(C(F)(F)F)o3)cc(C)cc2c1" ?
[reply] 5.00 to 6.00

[ask] And what about the molecule "Cc1ccc2cnccc2c1C(=O)N(Cc1ccc(-c2cccc(C(C)(C)C(=O)O)c2)cc1)Cc1ccc(C(F)(F)F)o1" ?
[reply] > 7.00

[ask] Similarly, "Cc1nc2cccnc2c(C(=O)N(Cc2ccc(-c3cccc(C(C)(C)C(=O)O)c3)cc2)Cc2nc(C(F)(F)F)cs2)c1C" ?
[reply] 6.00 to 7.00

[ask] Next: "Cc1nc2ccccc2c(C(=O)N(Cc2ccc(-c3cccc(C(C)(C)C(=O)O)c3)cc2)Cc2ccc(C(F)(F)F)o2)c1O"
[reply] 5.00 to 6.00

[ask] Please answer likewise for "COc1ccc2ccccc2c1CN(Cc1ccc(-c2cccc(S(=O)(=O)CC(=O)O)c2)cc1)Cc1ccc(C(F)(F)F)o1"
[reply] 6.00 to 7.00

[ask] Next record, please: Cc1ccc2ccccc2c1C(=O)N(Cc1ccc(-c2cccc(C(C)(O)C(=O)O)c2)cc1)Cc1ccc(C(F)(F)F)o1 (stereo not drawn)
[reply] 6.00 to 7.00

[ask] Param item: "Cc1nc2ncccc2c(C(=O)N(Cc2ccc(-c3cccc(C(C)(C)C(=O)O)c3)cc2)Cc2ccc(C(F)(F)F)o2)c1C"
[reply] 6.00 to 7.00

[ask] # iterate: "O=C(O)CS(=O)(=O)c1cccc(-c2ccc(CN(Cc3ccc(C(F)(F)F)o3)C(=O)c3cccc4ccccc34)cc2)c1"
[reply] 5.00 to 6.00

[ask] Also check "COc1cc(-c2cccc(C(C)(C)C(=O)O)c2)ccc1CN(Cc1ccc(C(F)(F)F)o1)Cc1c(C)cc(C)cc1C"
[reply] 6.00 to 7.00

[ask] Would you kindly repeat that for "Cc1cc(C)c(CN(Cc2ccc(-c3cc(F)cc(S(=O)(=O)CC(=O)O)c3)cc2)Cc2ccc(C(F)(F)F)o2)c(C)c1" ?
[reply] 6.00 to 7.00

[ask] Ok, now "CC(C)(C(=O)O)c1cccc(-c2ccc(CN(Cc3ccc(C(F)(F)F)o3)Cc3cccc4c3CCCO4)cc2)c1"
[reply] 6.00 to 7.00

[ask] Now consider "Cc1ccc2ccc(F)cc2c1C(=O)N(Cc1ccc(-c2cccc(C(C)(C)C(=O)O)c2)cc1)Cc1ccc(C(F)(F)F)o1" .
[reply] > 7.00

[ask] # iterate: "Cc1sc2ccccc2c1CN(Cc1ccc(-c2cccc(S(=O)(=O)CC(=O)O)c2)cc1)Cc1ccc(C(F)(F)F)o1"
[reply] 5.00 to 6.00

[ask] Next molecule: "CC(C)(C(=O)O)c1cccc(-c2ccc(CN(Cc3ccc(C(F)(F)F)o3)C(=O)c3c4c(nc5ccccc35)CCCC4)cc2)c1"
[reply] 6.00 to 7.00
